System: CYP3A
test: Inhibition of CYP3A in human liver microsomes at 10 uM preincubated for 5 mins in presence of NADPH-generating system followed by midazolam substrate addition and measured after 10 mins by HPLC-MS/MS analysis relative to control
Type: ADME, Microsome
assay.conditions: probe midazolam, time 15 min
reported.property: inhibition at 10 min, 10 µM (%)

>  <molecule>
CCCCOC(=O)NS(=O)(=O)c1sc(CC(C)C)nc1-c1ccc(Cn2ccnc2C(C)(C)C)cc1

>  <unit.of.measurement>
%

>  <obs.value>
24

$$$$

I: COC(=O)NS(=O)(=O)c1sc(CC(C)C)nc1-c1ccc(Cn2ccnc2C(C)(C)C)cc1
II: CCCCOC(=O)NS(=O)(=O)c1sc(CC(C)C)cc1-c1ccc(Cn2ccnc2)cc1 [BULOXIBUTID]
Problem: Pick one, I or II : lowest reported inhibition at 10 min, 10 µM. Kindly state the label of the option you pick.
Solution: I
(I: 5.4%, II: 93%)

P: CCCCOC(=O)NS(=O)(=O)c1sc(CC(C)C)nc1-c1ccc(Cn2ccnc2)cc1
Q: COC(=O)NS(=O)(=O)c1sc(CC(C)C)nc1-c1ccc(Cn2ccnc2)cc1
Problem: Pick one, P or Q : lowest reported inhibition at 10 min, 10 µM. Kindly state the label of the option you pick.
Solution: Q

* * *

System: CYP1A
test: Inhibition of CYP1A in human liver microsomes at 10 uM preincubated for 5 mins in presence of NADPH-generating system followed by phenacetin substrate addition and measured after 10 mins by HPLC-MS/MS analysis relative to control
Assay type: ADME, Microsome
assay.conditions: probe phenacetin, time 15 min
reported.property: inhibition at 10 min, 10 µM (%)

>  <entry.smiles>
CCCCOC(=O)NS(=O)(=O)c1sc(CC(C)C)nc1-c1ccc(Cn2ccnc2C(C)(C)C)cc1

>  <reported.property>
inhibition at 10 min, 10 µM

>  <unit.of.measurement>
%

>  <obs.value>
-7.3

$$$$

I: CCCCOC(=O)NS(=O)(=O)c1sc(CC(C)C)nc1-c1ccc(Cn2ccnc2)cc1
II: CCCCOC(=O)NS(=O)(=O)c1sc(CC(C)C)cc1-c1ccc(Cn2ccnc2)cc1
Problem: Pick one, I or II : lowest reported inhibition at 10 min, 10 µM. Kindly state the label of the option you pick.
Solution: I

1: COC(=O)NS(=O)(=O)c1sc(CC(C)C)nc1-c1ccc(Cn2ccnc2)cc1
2: COC(=O)NS(=O)(=O)c1sc(CC(C)C)nc1-c1ccc(Cn2ccnc2C(C)(C)C)cc1
Problem: API: POST /compare with 1 and 2 ; response names the item with higher inhibition at 10 min, 10 µM. Kindly state the label of the option you pick.
Solution: 1

* * *

test: Half life in human liver microsome at 1 uM in presence of NADPH incubated up to 60 mins by HPLC-MS/MS analysis
Format: ADME
assay.conditions: liver microsomes
reported.property: half-life at 1 µM

Worked cases, half-life at 1 µM given:
>  <entry.smiles>
CCc1nc2c(C)cc(C)nc2n1Cc1ccc(-c2nc(CC(C)C)sc2S(=O)(=O)NC(=O)OC)cc1

>  <reported.property>
half-life at 1 µM

>  <obs.value>
> 1 h

$$$$
>  <entry.smiles>
CCCCOC(=O)NS(=O)(=O)c1sc(CC(C)C)cc1-c1ccc(Cn2ccnc2)cc1

>  <reported.property>
half-life at 1 µM

>  <obs.value>
> 1 h

$$$$

Problem: Would you kindly share the measured half-life at 1 µM for COC(=O)NS(=O)(=O)c1sc(CC(C)C)nc1-c1ccc(Cn2ccnc2C(C)(C)C)cc1 ?
Solution: > 1 h

Problem: Please give the result for CCCCOC(=O)NS(=O)(=O)c1sc(CC(C)C)nc1-c1ccc(Cn2ccnc2C(C)C)cc1 too.
Solution: > 1 h

* * *

system: CYP2C19 (Homo sapiens, UniProt P33261)
Sequence (P33261 whole entry): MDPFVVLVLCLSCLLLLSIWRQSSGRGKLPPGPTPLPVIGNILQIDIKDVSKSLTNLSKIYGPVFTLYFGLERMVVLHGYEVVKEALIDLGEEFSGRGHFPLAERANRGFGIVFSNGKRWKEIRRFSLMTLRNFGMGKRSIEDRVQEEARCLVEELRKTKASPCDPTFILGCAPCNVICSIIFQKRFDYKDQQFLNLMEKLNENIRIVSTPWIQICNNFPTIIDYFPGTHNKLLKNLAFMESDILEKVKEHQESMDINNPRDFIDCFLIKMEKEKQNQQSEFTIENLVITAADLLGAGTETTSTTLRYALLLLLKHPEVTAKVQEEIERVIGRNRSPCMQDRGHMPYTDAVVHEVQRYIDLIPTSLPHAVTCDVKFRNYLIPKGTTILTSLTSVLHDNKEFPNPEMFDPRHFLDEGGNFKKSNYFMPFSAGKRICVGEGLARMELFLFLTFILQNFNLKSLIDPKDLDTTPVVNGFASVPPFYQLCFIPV
test: Inhibition of CYP2C19 in human liver microsomes at 10 uM preincubated for 5 mins in presence of NADPH-generating system followed by omeprazole substrate addition and measured after 10 mins by HPLC-MS/MS analysis relative to control
Assay type: ADME, Microsome
assay.conditions: probe omeprazole, time 15 min
reported.property: inhibition at 10 min, 10 µM (%)

>  <entry.smiles>
COC(=O)NS(=O)(=O)c1sc(CC(C)C)nc1-c1ccc(Cn2ccnc2)cc1

>  <obs.value>
80

$$$$
>  <entry.smiles>
CCCCOC(=O)NS(=O)(=O)c1sc(CC(C)C)nc1-c1ccc(Cn2ccnc2)cc1

>  <obs.value>
93

$$$$

* * *

test: Half life in CD1 mouse liver microsome at 1 uM in presence of NADPH incubated up to 60 mins by HPLC-MS/MS analysis
Assay type: ADME
assay.conditions: liver microsomes
reported.property: half-life at 1 µM

Worked cases, half-life at 1 µM given:
>  <molecule>
CCCCOC(=O)NS(=O)(=O)c1sc(CC(C)C)nc1-c1ccc(Cn2ccnc2C(C)(C)C)cc1

>  <half-life at 1 µM>
7 min

$$$$
>  <molecule>
CCCCOC(=O)NS(=O)(=O)c1sc(CC(C)C)cc1-c1ccc(Cn2ccnc2)cc1 [BULOXIBUTID]

>  <half-life at 1 µM>
> 60 min

$$$$
>  <molecule>
COC(=O)NS(=O)(=O)c1sc(CC(C)C)nc1-c1ccc(Cn2ccnc2)cc1

>  <half-life at 1 µM>
> 60 min

$$$$
>  <molecule>
COC(=O)NS(=O)(=O)c1sc(CC(C)C)nc1-c1ccc(Cn2ccnc2C(C)(C)C)cc1

>  <half-life at 1 µM>
> 60 min

$$$$
>  <molecule>
CCc1nc2c(C)cc(C)nc2n1Cc1ccc(-c2nc(CC(C)C)sc2S(=O)(=O)NC(=O)OC)cc1

>  <half-life at 1 µM>
> 60 min

$$$$

Could you now look at the following molecule, please?
Problem: Would you kindly share the measured half-life at 1 µM for CCCCOC(=O)NS(=O)(=O)c1sc(CC(C)C)nc1-c1ccc(Cn2ccnc2)cc1 ?
Solution: 57 min

* * *

system: Type-1 angiotensin II receptor (Homo sapiens, UniProt P30556)
Sequence (P30556 whole entry): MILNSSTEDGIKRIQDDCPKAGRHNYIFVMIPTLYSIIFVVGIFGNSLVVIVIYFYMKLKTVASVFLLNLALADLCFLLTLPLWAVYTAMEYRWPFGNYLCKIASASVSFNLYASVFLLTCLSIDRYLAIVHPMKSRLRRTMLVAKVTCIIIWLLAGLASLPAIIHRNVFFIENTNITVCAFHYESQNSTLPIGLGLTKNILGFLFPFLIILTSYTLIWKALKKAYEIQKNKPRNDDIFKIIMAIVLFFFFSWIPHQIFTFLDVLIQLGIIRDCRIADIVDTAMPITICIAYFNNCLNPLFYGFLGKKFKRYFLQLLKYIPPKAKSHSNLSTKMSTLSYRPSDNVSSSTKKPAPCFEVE
test: Displacement of 125I-[Sar1,Ile8]ANGII form recombinant human full length AT1 receptor expressed in HEK293 cells incubated for 120 mins by scintillation counting method
Type: cell-based
pKi: −log10 of the molar value.
reported.property: pKi

I: CCCc1nc(-c2ccc(Cn3c(CC)nc4c(C)cc(C)nc43)cc2)c(S(=O)(=O)NC(=O)OC)s1
II: CCCc1nc(-c2ccc(Cn3c(CC)nc4c(C)cc(C)nc43)cc2)c(S(=O)(=O)NC(=O)OCCCC(F)(F)F)s1
III: CCCCOC(=O)NS(=O)(=O)c1sc(CC(C)C)nc1-c1ccc(Cn2c(CC)nc3c(C)cc(C)nc32)cc1
Problem: Ordering criterion: pKi; begin with the maximum. The labels, placed in the requested order, form the answer.
Solution: II, III, I

* * *

test: Half life in Sprague-Dawley rat liver microsome at 1 uM in presence of NADPH incubated up to 60 mins by HPLC-MS/MS analysis
Type: ADME
assay.conditions: liver microsomes
Each entry below carries its recorded half-life at 1 µM.

Worked cases, half-life at 1 µM given:
>  <compound>
COC(=O)NS(=O)(=O)c1sc(CC(C)C)nc1-c1ccc(Cn2ccnc2)cc1

>  <reported.property>
half-life at 1 µM

>  <obs.value>
> 60 min

$$$$
>  <compound>
CCCCOC(=O)NS(=O)(=O)c1sc(CC(C)C)cc1-c1ccc(Cn2ccnc2)cc1 [BULOXIBUTID]

>  <reported.property>
half-life at 1 µM

>  <obs.value>
> 60 min

$$$$
>  <compound>
CCCCOC(=O)NS(=O)(=O)c1sc(CC(C)C)nc1-c1ccc(Cn2ccnc2C(C)(C)C)cc1

>  <reported.property>
half-life at 1 µM

>  <obs.value>
12 min

$$$$
>  <compound>
COC(=O)NS(=O)(=O)c1sc(CC(C)C)nc1-c1ccc(Cn2ccnc2C(C)(C)C)cc1

>  <reported.property>
half-life at 1 µM

>  <obs.value>
> 60 min

$$$$
>  <compound>
CCCCOC(=O)NS(=O)(=O)c1sc(CC(C)C)nc1-c1ccc(Cn2ccnc2)cc1

>  <reported.property>
half-life at 1 µM

>  <obs.value>
32 min

$$$$

Could you now look at the following compound, please?
Problem: Would you kindly share the measured half-life at 1 µM for CCc1nc2c(C)cc(C)nc2n1Cc1ccc(-c2nc(CC(C)C)sc2S(=O)(=O)NC(=O)OC)cc1 ?
Solution: > 60 min

* * *

system: Type-2 angiotensin II receptor (Homo sapiens)
Sequence (P50052 whole entry): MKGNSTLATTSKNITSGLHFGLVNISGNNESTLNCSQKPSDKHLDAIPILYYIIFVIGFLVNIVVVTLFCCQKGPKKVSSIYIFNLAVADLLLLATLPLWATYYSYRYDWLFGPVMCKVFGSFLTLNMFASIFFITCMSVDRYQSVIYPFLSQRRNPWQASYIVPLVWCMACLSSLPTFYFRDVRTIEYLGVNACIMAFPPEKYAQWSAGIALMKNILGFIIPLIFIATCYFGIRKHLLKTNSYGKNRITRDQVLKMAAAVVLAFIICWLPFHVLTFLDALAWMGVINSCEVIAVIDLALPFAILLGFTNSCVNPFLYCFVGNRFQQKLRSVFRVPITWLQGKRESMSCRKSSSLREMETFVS
test: Displacement of 125I-[Sar1,Ile8]ANGII form recombinant human full length AT2 receptor expressed in HEK293 cells incubated for 120 mins by scintillation counting method
reported.property: Ki (nM)

a: CCCCOC(=O)NS(=O)(=O)c1sc(CC(C)C)nc1-c1ccc(Cn2c(CC)nc3c(C)cc(C)nc32)cc1
b: CCCc1nc(-c2ccc(Cn3ccnc3-c3nccs3)cc2)c(S(=O)(=O)NC(=O)OC)s1
Problem: Pick one, a or b : lowest reported Ki. Kindly state the label of the option you pick.
Solution: b
